Exercise: state measured viability, T/C for each of the molecules provided.
# experimentalDetails: Anticancer human tumor 997537-175-T-J1-PDC patient-derived colon adenocarcinoma cell line growth inhibition [POLQ];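 further: luminescence signal used as a surrogate for viable cells; spheroids exposed to drugs for seven days before readout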
# runParameters: 997537-175-T-J1-PDC complex spheroid viability, combination with POLQ inhibitors; second compound 0.316 µM; first compound 1 µM; active compounds read low
Report only the number, with the unit % understood.

Looking up COc1cccc(OCCCN)c1-c1cc(Nc2cnc(C#N)cn2)n[nH]1 + Nc1ccc(C#CCN(C(=O)Cc2ncc(C(F)(F)F)cc2C(F)(F)F)c2ccc(F)cc2)nn1 , I see its viability, T/C listed as 41.9

Notebook: COc1ccc([C@@H](O)c2cc(-c3ncnc4cc(N5CCOCC5)ccc34)c(F)cc2Cl)nn1 + COC1C(OC(N)=O)C(O)C(Oc2ccc3c(O)c(NC(=O)c4ccc(O)c(CC=C(C)C)c4)c(=O)oc3c2C)OC1(C)C , viability, T/C read as 96.8

Value of measured viability, T/C for the entry COc1cccc(OCCCN)c1-c1cc(Nc2cnc(C#N)cn2)n[nH]1 + COC1C(OC(N)=O)C(O)C(Oc2ccc3c(O)c(NC(=O)c4ccc(O)c(CC=C(C)C)c4)c(=O)oc3c2C)OC1(C)C : 30.2

Summary for this molecule, CCCS(=O)(=O)Nc1ccc(F)c(C(=O)c2c[nH]c3ncc(-c4ccc(Cl)cc4)cc23)c1F + Nc1ccc(C#CCN(C(=O)Cc2ncc(C(F)(F)F)cc2C(F)(F)F)c2ccc(F)cc2)nn1 : viability, T/C is 71.9

CCCS(=O)(=O)Nc1ccc(F)c(C(=O)c2c[nH]c3ncc(-c4ccc(Cl)cc4)cc23)c1F + Cc1cccc(N(C)C(=O)C2C(O)CCN2c2nc(C)cc(C(F)(F)F)c2C#N)c1 yielded viability, T/C of 75.4

Given item CC1COCCN1c1cc(-c2ccnn2C)c2ccnc(-c3ccn[nH]3)c2n1 (stereo not given) + COC1C(OC(N)=O)C(O)C(Oc2ccc3c(O)c(NC(=O)c4ccc(O)c(CC=C(C)C)c4)c(=O)oc3c2C)OC1(C)C , the value recorded as its viability, T/C is 46.3

Entry under test: O=c1[nH]cc(F)c(=O)[nH]1 + Nc1ccc(C#CCN(C(=O)Cc2ncc(C(F)(F)F)cc2C(F)(F)F)c2ccc(F)cc2)nn1 . Its viability, T/C was 105

Record CCc1cc2c(N3CCc4c(cc(Cn5ccnc5)cc4-c4cn(C)nc4C(F)(F)F)C3=O)cc(C)nc2c(OC)n1 + COC1C(OC(N)=O)C(O)C(Oc2ccc3c(O)c(NC(=O)c4ccc(O)c(CC=C(C)C)c4)c(=O)oc3c2C)OC1(C)C , field viability, T/C: 80.7

Documented viability, T/C of CC1COCCN1c1cc(C2(S(C)(=N)=O)CC2)nc(-c2ccnc3[nH]ccc23)n1 (stereo not given) + Cc1cccc(N(C)C(=O)C2C(O)CCN2c2nc(C)cc(C(F)(F)F)c2C#N)c1 : 91.6

viability, T/C reading for CCc1cc2c(N3CCc4c(cc(Cn5ccnc5)cc4-c4cn(C)nc4C(F)(F)F)C3=O)ccnc2c(OC)n1 + COC1C(OC(N)=O)C(O)C(Oc2ccc3c(O)c(NC(=O)c4ccc(O)c(CC=C(C)C)c4)c(=O)oc3c2C)OC1(C)C : 95.7
